experimental.protocol: Half life in dog at 1 mg/kg, iv
Type: ADME, organism-based, Canis lupus familiaris
Parameters: dose 1 mg/kg, route intravenous
test.parameters: in vivo
endpoint: half-life (h)
Write it as a number; the unit h goes unstated.

half-life lookup needed for Cc1oc(-c2ccccc2)nc1CCCc1ccc(C[C@@H](C(=O)O)n2nccn2)cc1 , thanks.
5.8

----------
experimental.protocol: Oral bioavailability in dog at 3 mg/kg, po
Format: ADME, organism-based, Canis lupus familiaris
test.parameters: in vivo
endpoint: bioavailability

Need bioavailability of Cc1oc(-c2ccccc2)nc1CCCc1ccc(C[C@@H](C(=O)O)n2nccn2)cc1 , thanks.
> 95%

----------
experimental.protocol: AUC in rat at 1 mg/kg, iv
Type: ADME, organism-based
Design: dose 1 mg/kg, route intravenous
test.parameters: plasma
endpoint: AUC (µg·h/mL)
Respond with the bare value in µg·h/mL.

Would you mind telling me what AUC value was observed for Cc1oc(-c2ccccc2)nc1CCCc1ccc(C[C@@H](C(=O)O)n2nccn2)cc1 ?
0.928

----------
experimental.protocol: Oral bioavailability in rat at 3 mg/kg, po
Assay type: ADME, organism-based
test.parameters: in vivo
endpoint: bioavailability
Report the figure along with its unit, number first.

// lookup bioavailability for Cc1oc(-c2ccccc2)nc1CCCc1ccc(C[C@@H](C(=O)O)n2nccn2)cc1
42%

----------
experimental.protocol: Volume of distribution at steady state in dog at 1 mg/kg, iv
Type: ADME, organism-based, Canis lupus familiaris
Set-up: dose 1 mg/kg, route intravenous
test.parameters: in vivo, read-out: Vdss
endpoint: Vd (L/kg)
// units = L/kg; emit number, no label

Request the reported Vd associated with Cc1oc(-c2ccccc2)nc1CCCc1ccc(C[C@@H](C(=O)O)n2nccn2)cc1
0.82

----------
experimental.protocol: Clearance in rat at 1 mg/kg, iv
Assay type: ADME, organism-based
Parameters: dose 1 mg/kg, route intravenous
test.parameters: in vivo
endpoint: clearance

For Cc1oc(-c2ccccc2)nc1CCCc1ccc(C[C@@H](C(=O)O)n2nccn2)cc1 , what is its reported clearance?
18 mL/min/kg

----------
experimental.protocol: AUC in dog at 1 mg/kg, iv
Format: ADME, organism-based, Canis lupus familiaris
Set-up: dose 1 mg/kg, route intravenous
test.parameters: plasma
endpoint: AUC (ng·h/mL)
Write down the numeric answer in ng·h/mL and omit the unit.

May I ask what AUC has been recorded for Cc1oc(-c2ccccc2)nc1CCCc1ccc(C[C@@H](C(=O)O)n2nccn2)cc1 ?
3970

----------
experimental.protocol: AUC in dog at 3 mg/kg, po
Type: ADME, organism-based, Canis lupus familiaris
Set-up: dose 3 mg/kg, route oral
test.parameters: plasma
endpoint: AUC
State the value, then name its unit.

Would you kindly share the measured AUC for Cc1oc(-c2ccccc2)nc1CCCc1ccc(C[C@@H](C(=O)O)n2nccn2)cc1 ?
13000 ng·h/mL
